REPORTED CONDITIONS: in water, 308.2 K
OBSERVATION TYPE: solubility (mole fraction)

1) CC(=O)N1CCN(c2ccc(OC[C@@H]3CO[C@@](Cn4ccnc4)(c4ccc(Cl)cc4Cl)O3)cc2)CC1 (racemic)	4.8e-07

###

REPORTED CONDITIONS: in water, 313.2 K
OBSERVATION TYPE: solubility (mole fraction)

1) CC(=O)N1CCN(c2ccc(OC[C@@H]3CO[C@@](Cn4ccnc4)(c4ccc(Cl)cc4Cl)O3)cc2)CC1 (racemic)	5.11e-07

###

REPORTED CONDITIONS: in water, 293.2 K
OBSERVATION TYPE: solubility (mole fraction)

1) CC(=O)N1CCN(c2ccc(OC[C@@H]3CO[C@@](Cn4ccnc4)(c4ccc(Cl)cc4Cl)O3)cc2)CC1 (racemic)	3.8e-07
